testSystem: SREBP
methodSummary: Reporter Screening Assay (SRE-luciferase reporter, HepG2)
Type: cell-based
experimentalSetup: SREBPv1 Reporter cell line HepG2, 24 hours, 0.01 uM to 10 uM, read-out: I: Reporter Screening Assay (Ave EC50 (nM))
Description: Reporter Screening Assay: This assay was used to evaluate the effect on transcriptional activity SREBP of selected compounds using an SRE-luciferase reporter construct. […] Reagents for performing Luciferase assay were stored at −20° C. […] After 30 min incubation, the plate was read for total luminescence. Each well was read for 2 seconds in a plate luminometer. (Microplate reader Envision Microplate reader from Perkin Elmer). […]

| chemSmiles | testSystem | EC50 |
| --- | --- | --- |
| CC(C)[C@H](N)C(=O)OCC1(c2cc(-c3csc(-c4ccc(C(=O)N5CCC(O)CC5)cc4Cl)c3)ccn2)CC1 | SREBP | < 249 nM |

----------
methodSummary: Stability in mouse liver microsomes
Assay type: in vitro ADME
Protocol: Half-life Human Microsomes: Compounds were evaluated for stability in human liver microsomes. A 10 mM stock solution of the compound being evaluated was prepared in DMSO and diluted with water:acetonitrile (1:1) to a concentration of 1 mM. […] To prepare the sample mixture to be evaluated, 25 μL incubation mixture was combined with 200 μL of acetonitrile containing internal standard and vortexed for 5 min at 1200 rpm, then centrifuged for 10 min at 4000 rpm. […]
reportedProperty: percent remaining after 60 min in mouse liver microsomes

| compound | result |
| --- | --- |
| O=C(c1ccc(-c2cc(-c3ccnc4c3NCCN4)cs2)c(Cl)c1)N1CCC(O)CC1 | + (0-30 = +) |
| O=C(c1ccc(-c2cc(-c3ccnc4c3OCCN4)cs2)c(Cl)c1)N1CCC(O)CC1 | + (0-30 = +) |
| O=C(c1ccc(-c2cc(-c3ccnc(C4CCOC4)c3)cs2)c(Cl)c1)N1CCC(O)CC1 (centres unmarked) | +++ (≥60.1 = +++) |
| O=C(c1ccc(-c2cc(-c3ccnc(C4(CO)CC4)c3)cs2)c(Cl)c1)N1CC[C@H](O)[C@@H](F)C1 | +++ (≥60.1 = +++) |
| O=C(c1ccc(-c2cc(-c3ccnc(C4CCCO4)c3)cs2)c(Cl)c1)N1CCC(O)CC1 (centres unmarked) | +++ (≥60.1 = +++) |
| O=C(c1ccc(-c2cc(-c3ccnc(C4CCOCC4)c3)cs2)c(Cl)c1)N1CCC(O)CC1 | +++ (≥60.1 = +++) |
| O=C(c1ccc(-c2cc(-c3ccnc(OC4CC(CO)C4)c3)cs2)c(Cl)c1)N1CCC(O)CC1 (centres unmarked) | +++ (≥60.1 = +++) |

----------
methodSummary: Stability in mouse liver microsomes
Type: in vitro ADME
Method: Half-life Human Microsomes: Compounds were evaluated for stability in human liver microsomes. A 10 mM stock solution of the compound being evaluated was prepared in DMSO and diluted with water:acetonitrile (1:1) to a concentration of 1 mM. […] To prepare the sample mixture to be evaluated, 25 μL incubation mixture was combined with 200 μL of acetonitrile containing internal standard and vortexed for 5 min at 1200 rpm, then centrifuged for 10 min at 4000 rpm. […]
reportedProperty: percent remaining after 60 min in mouse liver microsomes

| compound | result |
| --- | --- |
| O=C(c1ccc(-c2cc(-c3ccnc(OCC4CC(O)C4)c3)cs2)c(Cl)c1)N1CCC(O)CC1 (centres unmarked) [Compound I-1629118] | +++ (≥60.1 = +++) |
| O=C(c1ccc(-c2cc(-c3ccnc(C4(CO)CCC4)c3)cs2)c(Cl)c1)N1CCC(O)CC1 [Compound I-1629089] | +++ (≥60.1 = +++) |
| O=C(c1ccc(-c2cc(-c3ccnc(C4(O)CCC4)c3)cs2)c(Cl)c1)N1CCC(O)CC1 [Compound I-1629076] | +++ (≥60.1 = +++) |
| O=C(c1ccc(-c2cc(-c3ccnc(OC4CC(O)C4)c3)cs2)c(Cl)c1)N1CCC(O)CC1 (centres unmarked) [Compound I-1629124] | +++ (≥60.1 = +++) |
| CC(C)(O)COc1cc(-c2csc(-c3ccc(C(=O)N4CCC(O)CC4)cc3Cl)c2)ccn1 [Compound I-1629101] | +++ (≥60.1 = +++) |
| O=C(c1ccc(-c2cc(-c3ccnc(CC4(O)CCC4)c3)cs2)c(Cl)c1)N1CCC(O)CC1 [Compound I-1629077] | ++ (30.1-60 = ++) |
| O=C(c1ccc(-c2cc(-c3ccnc(OC4CC4)c3)cs2)c(Cl)c1)N1CCC(O)CC1 [Compound I-1629059] | +++ (≥60.1 = +++) |
| O=C(c1ccc(-c2cc(-c3ccnc(OC4COC4)c3)cs2)c(Cl)c1)N1CCC(O)CC1 [Compound I-1629100] | +++ (≥60.1 = +++) |
| O=C(c1ccc(-c2cc(-c3ccnc(O[C@@H]4CO[C@H]5[C@@H]4OC[C@H]5O)c3)cs2)c(Cl)c1)N1CCC(O)CC1 [Compound I-1629106] | +++ (≥60.1 = +++) |
| O=C(c1ccc(-c2cc(-c3ccnc(C4(CO)CC4)c3)cs2)c(Cl)c1)N1CCC(O)CC1 [Compound I-1628961] | +++ (≥60.1 = +++) |
| O=C(c1ccc(-c2cc(-c3ccnc(CC4(F)CCC4)c3)cs2)c(Cl)c1)N1CCC(O)CC1 [Compound I-1629078] | +++ (≥60.1 = +++) |
| O=C(c1ccc(-c2cc(-c3ccnc(C4(O)COC4)c3)cs2)c(Cl)c1)N1CCC(O)CC1 [Compound I-1629083] | +++ (≥60.1 = +++) |
| O=C(c1ccc(-c2cc(-c3ccnc4c3OCCO4)cs2)c(Cl)c1)N1CCC(O)CC1 [Compound I-1629066] | ++ (30.1-60 = ++) |
